# PROTOCOL NOTES: protein stability index of a GFP-peptide fusion (GPS, HEK-293T) (PSI 1-6); higher = more stable;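 note: 24-mer peptide tiles fused after GFP, lentivirally expressed, FACS-sorted into six equal bins by GFP/DsRed ratio, decoded by Illumina sequencing, PSI is the read-weighted mean bin number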
# CONDITION NOTES: treatment: MLN4924 1 uM, 8 h; c terminus: a fixed tail appended
protein stability index values for the sequences below.
QUANTITY NAME: protein stability index

sequence="YHPEEFVCSQCGKVLEEGGFFEEK [PDLIM7]" quantity_name="protein stability index" value_reported=3.93
sequence="IESLNEELAYMKKNHEEEMKEFSN [KRT13]" quantity_name="protein stability index" value_reported=5.06
sequence="FVERVRKRGFEVVYMTEPIDEYCV [HSP90AB1]" quantity_name="protein stability index" value_reported=2.53
sequence="NPNGGSFEEVLSSTAHASAQSLAG [TPD52L1]" quantity_name="protein stability index" value_reported=4.9
sequence="LLVYDITNRWSFDGIDRWIKEIDE [RAB40C]" quantity_name="protein stability index" value_reported=2.18
sequence="LLETNPYLLALTIIVSIVHSVFEF [CLPTM1]" quantity_name="protein stability index" value_reported=2.69
sequence="PLSLVKRTDLKDLIIFDKQSSQRM [CEP70]" quantity_name="protein stability index" value_reported=3.18
sequence="RFTAESYTVLGDTLIDGGEHYWEV [FSD1]" quantity_name="protein stability index" value_reported=2.5
sequence="QAQMIHPKPADFRNPGPGRHRLIT [INTS4]" quantity_name="protein stability index" value_reported=3.92
sequence="FPREHQFFEDGDVQRHLYLQDVIM [ZNF511]" quantity_name="protein stability index" value_reported=2.78
sequence="PRNSDMKNQGEENGFPDSTGDPLP [EDARADD]" quantity_name="protein stability index" value_reported=5.36
sequence="LFPGRVSVDLMLGLPAQQVGPWLG [RSAD1]" quantity_name="protein stability index" value_reported=2.32
sequence="LSPEVLRKDPYGKPVDMWACGVIL [CAMK2D]" quantity_name="protein stability index" value_reported=2.14
sequence="YVINWFMSFGPEIKLNTSQQGRNQ [FAM104B]" quantity_name="protein stability index" value_reported=2.53
sequence="LPHDFIDSLEKTDDDKYKITLKYP [NLN]" quantity_name="protein stability index" value_reported=3.13
sequence="SELERLIVPNSNGVITTTPTPPGQ [JUNB]" quantity_name="protein stability index" value_reported=4.75
sequence="GIHLALVELLKNLTKYPTDRDSIW [INTS4]" quantity_name="protein stability index" value_reported=2.75
sequence="PVKTLPFSPSQFLNFWNKQDTLEL [MYBL2]" quantity_name="protein stability index" value_reported=2.43
sequence="NPVYYGPSDFFIGAVIEVFGHRFI [EFHC1]" quantity_name="protein stability index" value_reported=2.44
sequence="KLPRKVLQHVSEPQAHQESTRGAA [SPACA9]" quantity_name="protein stability index" value_reported=4.76
sequence="TDRGNDNWLIKYDCPMDSSSSRDT [PI4K2A]" quantity_name="protein stability index" value_reported=4.42
sequence="DESLCPQHHEALSLFCYEDQEAVC [TRIM39]" quantity_name="protein stability index" value_reported=4.69
sequence="GAAGRSQEPEVPCAAVLPGKPGDR [RSPH3]" quantity_name="protein stability index" value_reported=5.31
sequence="PAQPGADSSFPPALAEGYRYPELD [TBX6]" quantity_name="protein stability index" value_reported=5.01
sequence="SPPPAPTSSTFGLQDGNLRAPHKE [CHCHD6]" quantity_name="protein stability index" value_reported=5.32
sequence="DPLSDSDSMTSQAKPEALSSPKFR [ELOA2]" quantity_name="protein stability index" value_reported=5.27
sequence="SNVRWDHESVCKYYLCGFCPAELF [LUC7L3]" quantity_name="protein stability index" value_reported=2.29
sequence="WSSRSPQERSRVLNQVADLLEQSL [ALDH8A1]" quantity_name="protein stability index" value_reported=3.08
sequence="SSSSSSSSCYPLIPSTPEEVSADD [MAGEA10]" quantity_name="protein stability index" value_reported=5.5
sequence="ELIRVEVEILDLNDNSPSFATPER [PCDHGC5]" quantity_name="protein stability index" value_reported=2.43
sequence="TVFRAILDYYKTGIIRCPDGISIP [BTBD10]" quantity_name="protein stability index" value_reported=2.56
sequence="FFKGIDQDIERGVQSEIFLHESYC [LYSMD4]" quantity_name="protein stability index" value_reported=2.35
sequence="DPACYEFLWGPRALIETSYVKVLH [MAGEA6]" quantity_name="protein stability index" value_reported=2.21
sequence="ALRSHLKSFSMANGLNARMMHGGS [RAB40B]" quantity_name="protein stability index" value_reported=2.5
sequence="GAGLLSSISELKHALSGHAKVKPF [TPH1]" quantity_name="protein stability index" value_reported=3.02
sequence="LSVGQYNCPGQYTFSMPSDSHVSS [CD69]" quantity_name="protein stability index" value_reported=3.07
sequence="LLQDKQFELALQLAEMKDDSDSEK [VPS39]" quantity_name="protein stability index" value_reported=5.17
sequence="KRITAHEALKHPWVCQRSTVASMM [CAMK2B]" quantity_name="protein stability index" value_reported=2.51
sequence="GIELMEVDPIGHLYIFATCLGLSY [MAGEA3]" quantity_name="protein stability index" value_reported=2.85
sequence="TGEASENGLEDIDRILERIEDSTG [TCF25]" quantity_name="protein stability index" value_reported=5.46
sequence="KRSWEEHVTHWMGQPFNSDDRNTA [DLC1]" quantity_name="protein stability index" value_reported=3.52
sequence="FTRKTLAEKKQELDKLRNEWASHT [SASS6]" quantity_name="protein stability index" value_reported=3.77
sequence="YGGSGDGLIPTGSGRHPSHSTTPS [ARFIP2]" quantity_name="protein stability index" value_reported=4.51
sequence="AQNNCPAIMNALIEAGAHMDATNA [FEM1A]" quantity_name="protein stability index" value_reported=4.49
sequence="PKEEQQQALEQFAAAAAHSTPVRR [EPB41L3]" quantity_name="protein stability index" value_reported=5.22
sequence="GKAVVSHSKGHKSSRQEKRPLCAQ [ELOA2]" quantity_name="protein stability index" value_reported=4.64
sequence="LTQIDGTLSTIEFQREALENSHTN [CHMP4C]" quantity_name="protein stability index" value_reported=4.57
sequence="AFAERYAPDKTSTVLTRHSQPATP [PDLIM7]" quantity_name="protein stability index" value_reported=3.82
sequence="SDDNAKLPCFNGRVVSWLVSAEGS [DVL3]" quantity_name="protein stability index" value_reported=3.06
